biological target: CLR/RAMP1 receptor (UniProt Q16602 23-461; O60894 27-148, limits assumed); assay: cell-based or functional assay
Sequence (Q16602 23-461 limits assumed, chain 1 of 2): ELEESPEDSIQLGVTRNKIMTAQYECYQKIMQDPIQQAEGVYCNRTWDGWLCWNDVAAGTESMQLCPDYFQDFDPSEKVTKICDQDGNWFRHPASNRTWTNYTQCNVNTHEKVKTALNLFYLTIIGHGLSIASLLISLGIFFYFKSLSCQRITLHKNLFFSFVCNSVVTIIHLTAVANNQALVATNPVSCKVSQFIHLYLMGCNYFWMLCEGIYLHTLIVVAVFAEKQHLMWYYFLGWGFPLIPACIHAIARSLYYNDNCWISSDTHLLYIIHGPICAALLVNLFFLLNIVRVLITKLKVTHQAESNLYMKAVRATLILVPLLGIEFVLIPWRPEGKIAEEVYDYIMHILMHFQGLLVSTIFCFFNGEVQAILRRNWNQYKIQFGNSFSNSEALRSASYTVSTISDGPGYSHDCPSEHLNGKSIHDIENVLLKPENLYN
Sequence (O60894 27-148 limits assumed, chain 2 of 2): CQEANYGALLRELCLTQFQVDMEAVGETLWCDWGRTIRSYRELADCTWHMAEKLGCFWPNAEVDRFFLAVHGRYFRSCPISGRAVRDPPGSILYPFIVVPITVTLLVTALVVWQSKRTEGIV
Non-standard residues stand in square brackets, D forms with d. No end group written: not given here. *: point of attachment. Palmitoyl = CCCCCCCCCCCCCCCC(=O)*; AEEEA = NCCOCCOCCOCC(=O)O
The reader will find reported Max Activity % of positive control, CLR/RAMP1 cAMP assay values listed item by item below.

Solved entries:
miniPEG-K(Palmitoyl)TKKTLRTGCRFGTCTVQKLAHQIYQFTDKDKDNVAPRSKISPQGY-NH2 (ends and bridges not checked) [SEQ ID NO: 70]
69 % of positive control
[AEEEA]K(Palmitoyl)CRFGTCTVQKLAHQIYQFTDKDKDNSAPVDPSSPHSY-NH2 (ends and bridges not checked) [SEQ ID NO: 43]
39 % of positive control
[AEEEA]K(Palmitoyl)GCRFGTCTVQKLAHLWQLMGPAGRQDSAPVDPSSPHSY-NH2 (ends and bridges not checked) [SEQ ID NO: 62]
2 % of positive control

Can you share its Max Activity % of positive control, CLR/RAMP1 cAMP assay? I mean this binder: miniPEG-K(Palmitoyl)GCRFGTCTVQKLAHQIYQFTDKDKDNVAPVDPSSPHSY-NH2 (cysteine pairing not given here) [SEQ ID NO: 50] 65 % of positive control

Cited source: patent US20190010203A1
